- target under test: TrpR (Escherichia coli, UniProt P0A881, S88Y)
- Construct: TrpR without fluorescent proteins, pET21b(+), expressed in E. coli BL21(DE3), NiIMAC and Superdex S75; homodimer; template Trp-CTY / Trp-CTYT sensors (Addgene 13533, 13534)
- procedure text: ITC, one-site model

- smiles notation: "N#CCc1c[nH]c2ccccc12"
  Kd (µM): 17.9
- smiles notation: "O=C(O)Cc1c[nH]c2ccccc12"
  Kd (µM): 14.6

----------
- target under test: TrpR (Escherichia coli, UniProt P0A881, S88Y/T44L)
- Construct: TrpR without fluorescent proteins, pET21b(+), expressed in E. coli BL21(DE3), NiIMAC and Superdex S75; homodimer; template Trp-CTY / Trp-CTYT sensors (Addgene 13533, 13534)
- procedure text: ITC, one-site model

- smiles notation: "N#CCc1c[nH]c2ccccc12"
  Kd (µM): 19.5
- smiles notation: "O=C(O)Cc1c[nH]c2ccccc12"
  Kd (µM): 7.8

// provenance: paper PMC8081663
